Biological target: RORc ligand binding domain (Homo sapiens, UniProt P51449)
Construct: host or cells: E. coli
Sequence (P51449 269-508 limits assumed, species assumed): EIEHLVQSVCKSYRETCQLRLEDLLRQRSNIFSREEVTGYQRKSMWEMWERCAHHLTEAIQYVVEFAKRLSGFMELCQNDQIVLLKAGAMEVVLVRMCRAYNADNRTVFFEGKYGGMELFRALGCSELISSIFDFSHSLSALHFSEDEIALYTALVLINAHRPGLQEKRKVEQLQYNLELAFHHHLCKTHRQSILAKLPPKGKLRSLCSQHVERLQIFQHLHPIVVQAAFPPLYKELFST
Assay: In Vitro RORc Ligand Binding Assay (25-[3H]hydroxycholesterol radioligand filtration)
Details: In Vitro RORc Ligand Binding Assay; Table 4; read-out: RORc IC50
MEASURED_ENDPOINT: IC50 (nM)

Study these solved cases before continuing.
compound="C[C@H]1CCC(c2ccccc2)S(=O)(=O)N1Cc1ccc(NC2CCN(S(C)(=O)=O)CC2)cc1F (single isomer, unassigned) [Example 167]" tested_target="RORc ligand binding domain (Homo sapiens, UniProt P51449)" endpoint_unit=nM reading=9
compound="C[C@H]1CCC(c2ccccc2)S(=O)(=O)N1Cc1ccc(N2CCC(c3nnco3)CC2)cc1F (stereo partly drawn)" tested_target="RORc ligand binding domain (Homo sapiens, UniProt P51449)" endpoint_unit=nM reading=38
compound="C[C@H](O)C(=O)N1CCN(c2ccc(CN3CCCCC(c4ccccc4)S3(=O)=O)cc2)CC1 (single isomer, unassigned) [Example 311]" tested_target="RORc ligand binding domain (Homo sapiens, UniProt P51449)" endpoint_unit=nM reading=898
compound="CC(=O)N1CCN(c2ccc(CN3[C@@H](C)COCC(c4ccccc4)S3(=O)=O)c(F)c2)CC1 (single isomer, unassigned) [Example 25]" tested_target="RORc ligand binding domain (Homo sapiens, UniProt P51449)" endpoint_unit=nM reading=32

(1) C[C@H]1CCC(c2ccccc2)S(=O)(=O)N1Cc1ccc(C(=O)N2CCC(CO)CC2)cc1 (stereo partly drawn)
(2) CC(=O)N1CCN(c2ccc(CN3CC(C)CCC(c4ccccc4)S3(=O)=O)c(F)c2)CC1 (single isomer, unassigned) [Example 334]
Among 1 and 2 , whose measured IC50 is the smaller figure? Indicate your choice by writing its label. 2
(2: 5 nM, 1: 1100 nM)
